Each entry below carries its reported SPOT peptide array binding signal intensity.
- test target: SpMyo1
- test: SPOT peptide array binding signal intensity (averaged, normalized) (arbitrary units (background-subtracted, floor 0; scale differs between SH3 domains)); higher = stronger binding of the SH3 domain to the peptide
value type: SPOT peptide array binding signal intensity

PSRRAPLQLPQLVNK = 0.5
KKEKKPPKIPKKVYT = 3.25
SGVRLPAPPPPPRRG = 502
